# credit: patent US20250275988A1

Each record here notes measured Density.
Assay Info: density and max drug loading of antimicrobial agents considered for carrier particles
Type: physicochemical
Setup Conditions: Table 7
I only need the number, in g/mL, no unit after it.

Known Density results, listed for orientation:
Molecule: C[C@@H](O)[C@H]1C(=O)N2C(C(=O)O)=C(S[C@@H]3CN[C@H](C(=O)N(C)C)C3)[C@H](C)[C@H]12
Measurement Unit: g/mL
Density: 1.4
--
Molecule: CO/N=C(\C(=O)N[C@@H]1C(=O)N2C(C(=O)[O-])=C(C[N+]3(C)CCCC3)CS[C@H]12)c1csc(N)n1 [Cefepime]
Measurement Unit: g/mL
Density: 1.6
--
Molecule: CN(C)c1cc(NC(=O)CNC(C)(C)C)c(O)c2c1C[C@H]1C[C@H]3[C@H](N(C)C)C(O)=C(C(N)=O)C(=O)[C@@]3(O)C(O)=C1C2=O
Measurement Unit: g/mL
Density: 1.5
--
Molecule: CO[C@@]1(NC(=O)Cc2cccs2)C(=O)N2C(C(=O)O)=C(COC(N)=O)CS[C@@H]21
Measurement Unit: g/mL
Density: 1.6

q: Field request: Density | item: "[H]/N=C(\N/C(=N/[H])NCCCCCCNC(=N)NC(=N)Nc1ccc(Cl)cc1)Nc1ccc(Cl)cc1"
a: 1.06

q: Same question for "C[C@H]1[C@H](NC(=O)/C(=N\OC(C)(C)C(=O)O)c2csc(N)n2)C(=O)N1S(=O)(=O)O" please.
a: 1.83

q: And what about the molecule "NCC[C@H](O)C(=O)N[C@@H]1C[C@H](N)[C@@H](O[C@H]2O[C@H](CN)[C@@H](O)[C@H](O)[C@H]2O)[C@H](O)[C@H]1O[C@H]1O[C@H](CO)[C@@H](O)[C@H](N)[C@H]1O" ?
a: 1.6
